Papp values, listed per item
assay: in vitro
conditionContext: PAMPA, PAMPA-BBB Pe, Table S1; 60 min, room temperature, 0.05 mM
propertyMeasured: Papp (×10⁻⁶ cm/s)

compound	unitOfMeasure	reportedMeasurement
COc1ccc2c(c1OC)C(=O)O[C@@H]2[C@H]1c2cc3c(cc2CCN1C)OCO3 [Hydrastine]	×10⁻⁶ cm/s	57.4
CCC(=O)CCCCC[C@@H]1NC(=O)[C@H]2CCCCN2C(=O)[C@H]([C@@H](C)CC)NC(=O)[C@H](Cc2cn(OC)c3ccccc23)NC1=O [Apicidin]	×10⁻⁶ cm/s	55.8
COc1ccc(/C=C/C(=O)c2ccc(O)cc2O)cc1 [2',4'-DIHYDROXY-4-METHOXYCHALCONE]	×10⁻⁶ cm/s	357
C=CC(C1=CC(=O)C(OC)=CC1=O)c1ccc(OC)cc1 (stereo not shown) [NCGC00095719-04]	×10⁻⁶ cm/s	143
CC(=O)O[C@@H]1C[C@@]2(C)[C@H](c3ccoc3)C[C@H]3O[C@]32[C@]2(C)C(=O)C(O)=C3C(C)(C)C(=O)C=C[C@]3(C)C12 (stereo partly shown) [NCGC00179158-03]	×10⁻⁶ cm/s	17.6
COc1cc(O)c2c(c1)C1OC1C[C@H](O)[C@H](O)C(=O)C=CC[C@H](C)OC2=O (stereo partly shown) [NCGC00183677-03]	×10⁻⁶ cm/s	69.3
COc1ccc(/C=C/C(=O)c2ccc(O)cc2O)cc1OC [2',4'-DIHYDROXY-3,4-DIMETHOXYCHALCONE]	×10⁻⁶ cm/s	312

* * *

assay: in vitro
conditionContext: PAMPA, PAMPA-BBB Pe
Lab note: cut-off is 50 ×10⁻⁶ cm/s. Strictly less in Papp is Condition met. Exactly 50 ×10⁻⁶ cm/s or more is Condition not met.

> print(dat)
                                    compound     classification
 1  CC(C)(O)CC[C@@H](O)[C@](C)(O)[C@H]1CC[C@@]2(O)C3=CC(=O)[C@@H]4C[C@@H](O)[C@@H](O)C[C@]4(C)[C@H]3CC[C@]12C      Condition met
 2                 COC(=O)c1c(C)cc(O)c(C)c1O  Condition not met
 3  COc1cc2c(cc1OC)[C@@H]1Cc3ccc(OC)c(OC)c3CN1CC2 [TETRAHYDROPALMATINE]  Condition not met
 4  COc1ccc2c(c1OC)C(=O)O[C@@H]2[C@H]1c2c(cc3c(c2OC)OCO3)CCN1C [Noscapine, reference compound]  Condition not met
 5                       CCOC(=O)c1ccc(N)cc1  Condition not met
 6  COc1ccc2[nH]c3c(c2c1)CCNC3C (centres unmarked)      Condition met
 7  COc1cc2c(cc1OC)[C@@]13CCN4CC5=CCO[C@H]6CC(=O)N2[C@H]1[C@H]6[C@H]5C[C@H]43      Condition met
 8                            COc1cc(C)ccc1O  Condition not met
 9  CC(=O)O[C@H]1[C@H]2O[C@]23[C@@H]2CC[C@@H]4C[C@@H](O)CC[C@]4(C)[C@H]2CC[C@]3(C)[C@H]1c1ccc(=O)oc1      Condition met
10  C=C(C)[C@@H]1CCC2=CCC[C@@H](C)[C@]2(C)C1      Condition met
11  COC(=O)[C@@H]1[C@H]2C[C@H]3c4[nH]c5ccccc5c4CCN3C[C@@H]2CC[C@@H]1O      Condition met
